Provide the recorded GI50 for the entries that follow.
# Tested on: HOP-92 NSCLC
# Protocol Notes: NCI tumour cell line growth inhibition, 48 h
Where a SMILES comes first, the peptide text is derived from it. [ ]: non-standard residue; d: D form. The star is where a group is joined. hSer = N[CH](CCO)C(=O)O; Boc = CC(C)(C)OC(=O)*; Bn = c1ccc(C*)cc1

CC(C)CC(NC(=O)OC(C)(C)C)C(=O)NC(CCOCc1ccccc1)C(N)=O (stereo not drawn) (Boc-Leu-[hSer](Bn)-NH2; configuration not given here) | 21.4 µg/mL
CN(C)CCCC1(c2ccc(F)cc2)OCc2cc(-c3cc4ccccc4s3)ccc21 (centres undefined) | 1330 nM
C[C@]12CC[C@H]3[C@@H](CC4SC(N)=NC45C/C(=N/NC(N)=O)CC[C@]35C)[C@@H]1CCC2=O (some centres undefined) | 1510 nM

Moving on to the next compound.
GI50 for Cc1ccc2c(c1)C(=O)c1c-2c(OCCCN(C)C)nc2ccccc12 is 2180 nM
